# credit: patent US20220177594A1

molecular target: Feline_OSMR_hlgG1_Fc (feline); test: indirect ELISA, fOSMR coated; OD ratio to antibody expression control
Sequence (chain, as listed by the source limits assumed, form in doubt): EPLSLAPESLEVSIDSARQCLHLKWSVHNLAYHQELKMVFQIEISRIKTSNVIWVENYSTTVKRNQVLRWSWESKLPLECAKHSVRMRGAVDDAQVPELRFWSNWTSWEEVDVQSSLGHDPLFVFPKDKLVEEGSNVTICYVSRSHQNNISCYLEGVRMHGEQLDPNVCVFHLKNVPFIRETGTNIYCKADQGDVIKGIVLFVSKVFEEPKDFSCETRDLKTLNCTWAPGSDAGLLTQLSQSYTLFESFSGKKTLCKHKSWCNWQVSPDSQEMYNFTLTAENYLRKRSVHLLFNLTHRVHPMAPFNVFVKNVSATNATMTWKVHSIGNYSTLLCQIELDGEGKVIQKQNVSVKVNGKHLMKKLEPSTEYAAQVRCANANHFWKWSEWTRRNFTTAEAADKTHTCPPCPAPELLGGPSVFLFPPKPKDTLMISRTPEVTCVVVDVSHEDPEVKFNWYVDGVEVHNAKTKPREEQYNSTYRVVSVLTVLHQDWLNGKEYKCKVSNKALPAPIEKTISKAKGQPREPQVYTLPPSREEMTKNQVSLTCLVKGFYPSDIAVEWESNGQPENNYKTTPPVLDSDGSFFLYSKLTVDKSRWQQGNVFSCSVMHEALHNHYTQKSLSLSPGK
Some binders, each annotated with its measured ELISA ratio.
Numbers only; they are read as OD ratio.

Some solved cases for reference:
Mu_02D09_VH (SEQ ID NO: 31)_D31A (antibody, V domains shown) VH: EVQLVESGGGLVKPGGSLTLSCAASGFTFSAYGMHWLRQAPEKGLEWVAYISSGSRAVFFADTVKGRFTISRDNAKNTLFLQMTSLRSDDTAMYYCARDRYDGRGFAYWGQGTLVTVSA VL: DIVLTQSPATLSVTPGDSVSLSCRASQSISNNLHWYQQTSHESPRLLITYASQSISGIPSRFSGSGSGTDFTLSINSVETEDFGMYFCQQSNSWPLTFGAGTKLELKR | 0.159
Mu_09E09_VH (SEQ ID NO: 35)_Y57A (antibody, V domains shown) VH: DVKLVESGEGLVKPGGSLKLSCAASGFTFSSYAMSWVRQTPEKRLEWVAYISSGGDAIYYADTVKGRFTISRDNARNTLYLQMSSLKSEDTAMYYCTRDPITGTFAYWGQGTLVTVSA VL: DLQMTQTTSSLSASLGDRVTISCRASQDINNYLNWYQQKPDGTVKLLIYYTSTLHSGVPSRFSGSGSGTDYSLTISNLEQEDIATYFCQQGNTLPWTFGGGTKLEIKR | 0.052
mouse: canine 10F07 chimera (antibody, V domains shown) VH: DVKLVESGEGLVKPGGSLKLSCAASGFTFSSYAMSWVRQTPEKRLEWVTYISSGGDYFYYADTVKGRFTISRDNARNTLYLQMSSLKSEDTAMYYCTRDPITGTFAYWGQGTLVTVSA VL: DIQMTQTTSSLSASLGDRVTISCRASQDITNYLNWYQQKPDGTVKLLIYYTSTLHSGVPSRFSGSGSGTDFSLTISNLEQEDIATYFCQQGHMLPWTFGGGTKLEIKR | 1.76
Mu_02D09_VH (SEQ ID NO: 31)_D62A (antibody, V domains shown) VH: EVQLVESGGGLVKPGGSLTLSCAASGFTFSDYGMHWLRQAPEKGLEWVAYISSGSRAVFFAATVKGRFTISRDNAKNTLFLQMTSLRSDDTAMYYCARDRYDGRGFAYWGQGTLVTVSA VL: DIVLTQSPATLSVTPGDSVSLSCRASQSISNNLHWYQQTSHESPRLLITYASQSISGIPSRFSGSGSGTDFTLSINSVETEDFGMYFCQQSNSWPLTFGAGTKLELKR | 0.01

Problem: Data request, read-out ELISA ratio, for Mu_09E09_VL (SEQ ID NO: 37)_L94A (antibody, V domains shown) VH: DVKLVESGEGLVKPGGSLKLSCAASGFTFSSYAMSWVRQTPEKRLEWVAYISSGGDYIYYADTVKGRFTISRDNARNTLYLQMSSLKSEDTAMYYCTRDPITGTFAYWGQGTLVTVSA VL: DLQMTQTTSSLSASLGDRVTISCRASQDINNYLNWYQQKPDGTVKLLIYYTSTLHSGVPSRFSGSGSGTDYSLTISNLEQEDIATYFCQQGNTAPWTFGGGTKLEIKR
Solution: 0.055
